The reported numbers originate from ChEMBL document CHEMBL1275260.

# Tested on: Escherichia coli
# procedure_summary: Antibacterial activity against Escherichia coli MG1655 in presence of 10 mM N-Acetylcysteine
# Assay type: functional
Recorded MIC, one value per entry.
Supply the numeric figure in µg/mL, leaving out any unit text.

Please review the entries below; each comes with its answer.
INSERT INTO results (compound, data_value) VALUES
  ('O=C(O)c1cn(C2CC2)c2cc(N3CCNCC3)c(F)cc2c1=O', 0.512),
  ('CC1(C)S[C@@H]2[C@H](NC(=O)[C@H](N)c3ccccc3)C(=O)N2[C@H]1C(=O)O', 1),
  ('CC[C@H]1OC(=O)[C@H](C)[C@@H](O[C@H]2C[C@@](C)(OC)[C@@H](O)[C@H](C)O2)[C@H](C)[C@@H](O[C@@H]2O[C@H](C)C[C@H](N(C)C)[C@H]2O)[C@](C)(O)C[C@@H](C)C(=O)[C@H](C)[C@@H](O)[C@]1(C)O', 1020),
  ('CC1COc2c(N3CCN(C)CC3)c(F)cc3c(=O)c(C(=O)O)cn1c23 (stereo not given)', 1.02),
  ('CN(C)[C@@H]1C(O)=C(C(N)=O)C(=O)[C@@]2(O)C(O)=C3C(=O)c4c(O)cccc4[C@@](C)(O)[C@H]3C[C@@H]12', 1);

## Input Indicate its recorded MIC; the compound in question is "O=C(N[C@H](CO)[C@H](O)c1ccc([N+](=O)[O-])cc1)C(Cl)Cl"
## Output 4

## Input Indicate its recorded MIC; the compound in question is "CN[C@@H]1[C@H](O[C@H]2[C@H](O[C@H]3[C@H](O)[C@@H](O)[C@H](N=C(N)N)[C@@H](O)[C@@H]3N=C(N)N)O[C@@H](C)[C@]2(O)C=O)O[C@@H](CO)[C@H](O)[C@H]1O"
## Output 32

## Input Indicate its recorded MIC; the compound in question is "NC[C@H]1O[C@H](O[C@H]2[C@H](O)[C@@H](O[C@H]3O[C@H](CO)[C@@H](O)[C@H](N)[C@H]3O)[C@H](N)C[C@@H]2N)[C@H](O)[C@@H](O)[C@@H]1O"
## Output 32

## Input Indicate its recorded MIC; the compound in question is "CN[C@@H]1[C@H](O)[C@H](NC)[C@H]2O[C@@]3(O)C(=O)C[C@@H](C)O[C@H]3O[C@@H]2[C@H]1O"
## Output 256

## Input Indicate its recorded MIC; the compound in question is "CC1(C)S[C@@H]2[C@H](NC(=O)Cc3ccccc3)C(=O)N2[C@H]1C(=O)O"
## Output 64
